Tested On: IdeR WT (Saccharopolyspora erythraea DSM 40517, UniProt A0ABF7PL34 1-231)
Experiment Description: EMSA; 30 uM Co2+; EMSA: 15 mM Tris-acetate pH 7.3, 4 mM K-acetate, 10% glycerol, 17 ng/ul poly(dI-dC), 30 nM DNA, 30 uM Co2+, IdeR 15 nM-2.25 uM dimer, 20 min room temperature; 4% native gel at 4 C
Test Conditions: protein: recombinant; tags: N-terminal His6 removed by TEV; Gly-His remains before Met1; chain copies: 4; label: 5' Cy5 or 5' FAM on strand 1; blunt
pKd: −log10 of the molar value.
Attribute Measured: pKd

Query block: Using the record for Consensus_Full (dsDNA) DNA 1: CGTACTTAGGTTAGGCTAACCTAAGTACG DNA 2: CGTACTTAGGTTAGCCTAACCTAAGTACG , report its pKd.
Result block: ~7.35
